Tested on: A431, human epidermoid carcinoma cells
Test: Cell cycle analysis (FACS), mitotic arrest in G2/M
Type: cell-based
Conditions: Homo sapiens, A-431, 24 h, read-out: FACS Assay: concentration required to achieve inhibition in FACS assay
experimental-readout: minimal effective concentration (µM)
Field format: number, assumed µM, no unit text.

Reference set, count: 2
>>> assay_value("COc1cccc(Nc2nnc(-c3cccnc3NCc3cccnc3)[nH]2)c1 [Compound 25]")
1
>>> assay_value("FC(F)(F)c1ccc(-c2nnc(Nc3ccc4c(c3)OCO4)[nH]2)c(NCc2ccncc2)c1 [Compound 124]")
0.1

Ask: Give recorded minimal effective concentration. c1cnc(NCc2ccncc2)c(-c2nnc(Nc3ccc4c(c3)OCO4)[nH]2)c1 [Compound 38]
Result: 0.1

Ask: Identify measured minimal effective concentration corresponding to c1cnc(NCc2ccc3c(c2)CCO3)c(-c2nnc(Nc3ccc4c(c3)OCO4)o2)c1 [Compound 198]
Result: 0.1

Ask: Return the recorded minimal effective concentration value; entry: c1coc(CNc2ncccc2-c2nnc(Nc3ccc4c(c3)OCO4)o2)c1 [Compound 163]
Result: 1

Ask: Report minimal effective concentration, nothing else, for this compound: c1cnc(N2CCOCC2)c(-c2nnc(Nc3ccc4c(c3)OCCO4)o2)c1 [Compound 170]
Result: 0.1

Ask: Report measured minimal effective concentration; entry is c1cncc(CNc2ncccc2-c2nnc(Nc3ccc4c(c3)OCO4)o2)c1 [Compound 189]
Result: 0.1

Ask: Dear colleague, please send me the reported minimal effective concentration for c1ccc(CNc2ccccc2-c2nnc(Nc3ccc4c(c3)OCCO4)o2)nc1 [Compound 217] when you can.
Result: 0.1

---

In this section we review reported Tubulin Assay: percent inhibition at 10 μM based on 30 minute data values for a set of compounds.
System: bovine tubulin
Test: In vitro tubulin polymerization assay (turbidity at 340 nm)
Format: biochemical
Settings: 10 μM compound, 30 minute data point, vs 1% DMSO control
Procedure: Briefly, tubulin polymerization is a kinetic process that is temperature-dependent and requires GTP and was performed as follows. Soluble tubulin dimers polymerize into microtubules upon warming, and polymerization in vitro correlates with an increase in turbidity (measured at 340 nm). […] The absorbance at 340 nm was determined at one minute intervals for 30 minutes. […]
Dear colleague, please return just the value in %, with no unit written.

Worked examples follow.
>>> assay_value("c1ccc(CNc2ncccc2-c2nnc(Nc3ccc4c(c3)OCCO4)o2)nc1 [Compound 207]")
87
>>> assay_value("COc1ccc(-c2nnc(-c3cccnc3NCc3ccc4c(c3)OCO4)[nH]2)cc1OC [Compound 78]")
55
>>> assay_value("COc1cccc(Nc2nc(-c3cccnc3Nc3cc(OC)cc(OC)c3)nn2C)c1 [Compound 66]")
73

Okay, now this compound:
Ask: Fill in reported Tubulin Assay: percent inhibition at 10 μM based on 30 minute data for this entry: Fc1ccc(CNc2ncccc2-c2nnc(Nc3ccc4c(c3)OCCO4)o2)cc1F [Compound 161]
Result: 82

---

Test system: A431, human epidermoid carcinoma cells
Assay: Cell cycle analysis (FACS), mitotic arrest in G2/M
Format: cell-based
Details: Homo sapiens, A-431, 24 h, read-out: FACS Assay: concentration required to achieve inhibition in FACS assay
minimal effective concentration listing for selected compounds.
Numeric answer only, unit µM assumed.

These solved cases illustrate the format of a correct answer.
>>> assay_value("CS(=O)(=O)c1ccc(-c2nnc(-c3cccnc3Nc3cccc(S(N)(=O)=O)c3)[nH]2)cc1 [Compound 92]")
10
>>> assay_value("c1cnc(NCc2ccncc2)c(-c2nnc(Nc3ccc4c(c3)OCCO4)o2)c1 [Compound 206]")
0.025
>>> assay_value("c1ccc(-c2nnc(Nc3ccc4c(c3)OCCO4)o2)c(NCc2cn[nH]c2)c1 [Compound 223]")
0.1
>>> assay_value("Brc1cnn(-c2ncccc2-c2nnc(Nc3ccc4c(c3)OCO4)o2)c1 [Compound 210]")
1
>>> assay_value("CS(=O)(=O)c1ccc(-c2nnc(-c3cccnc3NCC3CCCO3)[nH]2)cc1 (centres unmarked) [Compound 106]")
0.1
>>> assay_value("COc1cc(Nc2ncccc2-c2nnc(NCC3CCCO3)[nH]2)cc(OC)c1 (centres unmarked) [Compound 56]")
1

Ask: Give minimal effective concentration for this entry on A431, human epidermoid carcinoma cells: COc1cc(CNc2ncccc2-c2nnc(Nc3ccc4c(c3)OCO4)o2)cc(OC)c1 [Compound 182]
Result: 1

Ask: Provide A431, human epidermoid carcinoma cells minimal effective concentration reading for COc1cccc(Nc2nnc(-c3cccnc3Nc3ccc4c(c3)OCO4)[nH]2)c1 [Compound 7] .
Result: 10

Ask: Look up and report minimal effective concentration, with A431, human epidermoid carcinoma cells as system, for COc1ccc(Nc2nnc(-c3cccnc3NCc3ccc4c(c3)OCO4)[nH]2)c(OC)c1 [Compound 17]
Result: 10

Ask: // fetch minimal effective concentration for c1cnc(OCc2ccc3c(c2)OCO3)c(-c2nnc(Nc3ccc4c(c3)OCCO4)[nH]2)c1 [Compound 71] ; system: A431, human epidermoid carcinoma cells
Result: 0.1

Ask: Provide minimal effective concentration, tested on A431, human epidermoid carcinoma cells, for c1ccc(-c2nnc(Nc3ccc4c(c3)OCCO4)o2)c(NCc2ccc3c(c2)OCO3)c1 [Compound 218] .
Result: 0.1

Ask: Using A431, human epidermoid carcinoma cells as the test system, report measured minimal effective concentration of COc1cccc(Nc2nnc(-c3cccnc3Nc3cc(OC)cc(OC)c3)[nH]2)c1 [Compound 2] .
Result: 0.1

Ask: # lookup: A431, human epidermoid carcinoma cells minimal effective concentration, key = COc1cccc(CNc2ncccc2-c2nnc(Nc3ccc4c(c3)OCO4)o2)c1 [Compound 156]
Result: 1

Ask: # lookup: A431, human epidermoid carcinoma cells minimal effective concentration, key = c1ccc(CNc2ncccc2-c2nnc(Nc3ccc4c(c3)OCCO4)o2)nc1 [Compound 207]
Result: 0.025

Ask: Give reported minimal effective concentration for Fc1ccc(CNc2ncccc2-c2nnc(Nc3ccc4c(c3)OCCO4)[nH]2)cc1F [Compound 44] (A431, human epidermoid carcinoma cells)
Result: 1

Ask: Report value: minimal effective concentration, system: A431, human epidermoid carcinoma cells, compound: CS(=O)(=O)c1ccc(-c2nnc(-c3cccnc3NCc3ccc4c(c3)OCCO4)[nH]2)cc1 [Compound 105]
Result: 1

Ask: Give minimal effective concentration only, for c1ccc(-c2nnc(Nc3ccc4c(c3)OCCO4)[nH]2)c(NCc2ccc3[nH]ncc3c2)c1 [Compound 117] , using A431, human epidermoid carcinoma cells data.
Result: 1
